This collection of values is drawn from PubChem BioAssay (NCI).

Tested on: ACHN renal
Assay: NCI-60 one-dose screen, 48 h (100 = growth as untreated, 0 = no growth, -100 = all killed)
Details: 10 µM
Method: Growth inhibition of the ACHN human tumor cell line is measured as a screen for anti-cancer activity. Cells are grown in 96 well plates and exposed to the test compound for 48 hours. Compounds are tested at a single concentration, which is 10^-5 M for most compounds. The reported endpoint is percent growth (GI% or GIPRCNT), where numbers from 0 - 100% represent growth inhibition, and numbers from -100% - 0 represent cell death. For example, a value of 40 represents 60% growth inhibition. […]
This is part of a sample that, as a whole, favours compounds with a hit. Of some 83,000 tested, about 20% had one in any assay. Calls of active or inactive are those of the source. Rule for the calls: active = growth percent below 10; inactive = the rest.
measured_quantity: growth

These recorded examples may help you get a feel for the data.
{"compound": "CN1CCc2c(sc3nc4n(-c5ccc(Cl)cc5)c(=O)[nH]n4c(=O)c23)C1", "reported_result": "106% (inactive)"}
{"compound": "O=C(CSc1nccc(Nc2cccc3ccccc23)n1)c1ccc(Cl)cc1", "reported_result": "91.7% (inactive)"}
{"compound": "O=C(CCn1cnc2c(cc(-c3ccccc3)n2-c2ccccc2)c1=O)Nc1ccc(F)cc1", "reported_result": "55.7% (inactive)"}
{"compound": "Clc1ccc(C2=NN=C3C(Cc4ccccc4)=Nc4ccccc4N3C2)cc1", "reported_result": "63.2% (inactive)"}

In: # input compound: CCOC(=O)c1cc(C(=O)c2cc(OC)c(OC)c(OC)c2)n2ncc3ccccc3c12 ; wanted: its growth
Out: 78.7% (inactive)

In: # input compound: COc1ccc(-c2nn(-c3cccc(Cl)c3)cc2-c2cc(-c3ccccc3)[nH]c(=O)c2C#N)cc1 ; wanted: its growth
Out: 11% (inactive)

In: # input compound: O=C(CSc1nnc(-c2ccc(Cl)cc2)o1)Nc1ccc(C(=O)/C=C/c2ccc(Cl)cc2)cc1 ; wanted: its growth
Out: 114% (inactive)

In: # input compound: CC(=O)N[C@H](C(=O)N[C@@H](CCCNC(=N)N)C(=O)N[C@@H](CCCCN)C(=O)N[C@@H](CCCNC(=N)N)C(=O)NC(C(=O)N[C@@H](CC(C)C)C(=O)N[C@@H](CCCNC(=N)N)C(=O)N[C@@]1(C)CCC/C=C\CCC[C@@](C)(C(=O)N[C@@H](CCCNC(=N)N)C(=O)N[C@@H](CCC(=O)O)C(=O)N[C@@H](CC(C)C)C(=O)N[C@H](C(=O)N[C@@H](CCC(=O)O)C(N)=O)C(C)C)NC(=O)[C@H](CCC(N)=O)NC(=O)[C@H](CC(C)C)NC(=O)[C@H](CC(C)C)NC1=O)[C@@H](C)O)C(C)C (some centres undefined) ; wanted: its growth
Out: 41.2% (inactive)

In: # input compound: COc1cc(/C=C/c2cc(/C=C/c3ccc(O)c(OC)c3)n(C(=O)Nc3ccccc3Cl)n2)ccc1O ; wanted: its growth
Out: 12.8% (inactive)

* * *

Test system: M14 melanoma
Assay: NCI-60 one-dose screen, 48 h
Conditions: 10 µM
About 83,000 compounds went through this panel and 20% of them were active in at least one assay; those are over-represented in the sample as a whole. Activity calls are given as the source filed them. Rule for the calls: active = growth percent below 10; inactive = the rest.
Outcome field: choose from 1 (yes) (active), 0 (no) (inactive)

In: // param item: CN(C)CCCSc1ccccc1NC1=C(Cl)C(=O)C(Nc2ccccc2SCCCN(C)C)=C(Cl)C1=O ; yields the recorded call
Out: 0 (no)

In: // param item: CCC(c1ccc(OC)cc1)C(CC)c1ccc(O)c(CN2CCN(C)CC2)c1 (centres undefined) ; yields the recorded call
Out: 1 (yes)

In: // param item: COc1cc(-c2nn(-c3cccc(NC(=O)CCN4CCN(Cc5ccccc5)CC4)c3)cc2-c2ccncc2)ccc1Cl ; yields the recorded call
Out: 1 (yes)

In: // param item: COc1ccc(-c2nn(-c3cccc(Cl)c3)cc2-c2c(C#N)c(=O)n3[nH]c(-c4ccc(C)cc4)nc3c2C#N)cc1 ; yields the recorded call
Out: 1 (yes)
